Tested on: SCG neurons
measurement_notes: cells
Assay type: cell-based, Sprague Dawley rats
condition_info: Rattus norvegicus, Neuron; Taxol™ (50 ng/mL), viability 48 hours later, MTS; read-out: IC(50), protection of SCG neurons from Taxol killing
Lab note - cut at 5 µM for IC50: YES if strictly below, NO if not.

Please review the entries below; each comes with its answer.
- molecule: "NS(=O)(=O)c1nn2c(-c3ccccc3)c(-c3ccccc3)nc2s1"
  system_name: "SCG neurons"
  category_label: "NO"
- molecule: "NS(=O)(=O)c1nn2cc(-c3ccc4c(c3)NC(=O)CO4)nc2s1"
  system_name: "SCG neurons"
  category_label: "NO"
- molecule: "NS(=O)(=O)c1nn2cc(-c3ccc4c(c3)OCO4)nc2s1"
  system_name: "SCG neurons"
  category_label: "NO"

Inquiry: Quick check: IC50 of NS(=O)(=O)c1nn2cc(-c3cccc(Br)c3)nc2s1 under 5 µM?
Reply text: NO

Inquiry: Does the reported IC50 of NS(=O)(=O)c1nn2c(Cl)c(-c3ccccc3)nc2s1 stay below 5 µM?
Reply text: NO

====

System: SCG neurons
measurement_notes: cells
Assay type: cell-based, Sprague Dawley rats
condition_info: Rattus norvegicus, Neuron; Taxol™ (50 ng/mL), viability 48 hours later, MTS; read-out: IC(50), protection of SCG neurons from Taxol killing
API: label(entry) gives y if the entry's IC50 is strictly smaller than 8 µM; on equality or larger values it gives n.

- compound: "NS(=O)(=O)c1nn2cc(-c3ccc(-c4ccccc4)cc3)nc2s1"
  category_label: "n"
- compound: "NS(=O)(=O)c1nn2cc(-c3cc(C(F)(F)F)cc(C(F)(F)F)c3)nc2s1"
  category_label: "n"
- compound: "NS(=O)(=O)c1nn2cc(-c3cccc([N+](=O)[O-])c3)nc2s1"
  category_label: "n"
- compound: "NS(=O)(=O)c1nn2cc(-c3cc(-c4ccccc4)no3)nc2s1"
  category_label: "y"
- compound: "NS(=O)(=O)c1nn2cc(-c3ccc(N4CCOCC4)cc3)nc2s1"
  category_label: "y"

Inquiry: Please let me know if NS(=O)(=O)c1nn2cc(-c3ccc(-c4ccc(C(F)(F)F)cc4)cc3)nc2s1 shows IC50 below 8 µM.
Reply text: y

====

system_name: CA II (Homo sapiens)
measurement_notes: CA II inhibition
Format: biochemical
condition_info: read-out: IC(50), CA II inhibition
readout_type: IC50 (nM)
One number for each entry, in nM.

Completed entries (count: 5):
- chemical_string: "CCCCCc1ccc(-c2cn3nc(S(N)(=O)=O)sc3n2)cc1"
  IC50 (nM): 601
- chemical_string: "COc1cccc(-c2cn3nc(S(N)(=O)=O)sc3n2)c1"
  IC50 (nM): 150
- chemical_string: "NS(=O)(=O)c1nn2cc(-c3ccc(Cl)c(Cl)c3Cl)nc2s1"
  IC50 (nM): 1590
- chemical_string: "Cc1ccc(-c2cn3nc(S(N)(=O)=O)sc3n2)c(C)c1"
  IC50 (nM): 288
- chemical_string: "NS(=O)(=O)c1nn2cc(-c3cccc([N+](=O)[O-])c3)nc2s1"
  IC50 (nM): 199

// each molecule listed below needs its IC50
1. NS(=O)(=O)c1nn2cc(-c3ccc(Cl)c([N+](=O)[O-])c3)nc2s1
2. NS(=O)(=O)c1nn2cc(-c3ccc(-c4ccc(CO)cc4)cc3)nc2s1
3. N#Cc1cccc(-c2cn3nc(S(N)(=O)=O)sc3n2)c1
4. NS(=O)(=O)c1nn2cc(-c3c(F)c(F)c(F)c(F)c3F)nc2s1
5. NS(=O)(=O)c1nn2cc(-c3ccc(-c4cccc(C(F)(F)F)c4)cc3)nc2s1
6. NS(=O)(=O)c1nn2cc(-c3ccc(-c4ccc(C(F)(F)F)cc4)cc3)nc2s1
7. N#Cc1ccc(-c2cn3nc(S(N)(=O)=O)sc3n2)cc1
8. NS(=O)(=O)c1nn2cc(-c3ccc(F)cc3)nc2s1

Reply text:
1. 577
2. 1680
3. 346
4. 164
5. 1580
6. 5430
7. 272
8. 217

Each of the following entries comes with a recorded value; kindly state IC50 for each.
1. CC(C)(C)c1ccc(-c2cn3nc(S(N)(=O)=O)sc3n2)cc1
2. NS(=O)(=O)c1nn2cc(-c3ccc(OC(F)(F)F)cc3)nc2s1
3. NS(=O)(=O)c1nn2cc(-c3ccc(Cl)c(Cl)c3)nc2s1
4. NS(=O)(=O)c1nn2cc(-c3cccc(OC(F)(F)F)c3)nc2s1
5. NS(=O)(=O)c1nn2cc(-c3cccc(Br)c3)nc2s1
6. CCSc1c(F)c(F)c(-c2cn3nc(S(N)(=O)=O)sc3n2)c(F)c1F
7. COc1cccc(-c2ccc(-c3cn4nc(S(N)(=O)=O)sc4n3)cc2)c1

Reply text:
466
302
1800
613
4050
581
526

====

System: SCG neurons
measurement_notes: cells
Format: cell-based, Sprague Dawley rats
condition_info: Rattus norvegicus, Neuron; Taxol™ (50 ng/mL), viability 48 hours later, MTS; read-out: IC(50), protection of SCG neurons from Taxol killing
Structures can show the parent of a compound that is named as a salt.
readout_type: IC50 (µM)
Answers are plain numbers, in µM.

Answered examples (2):
- molecule: "NS(=O)(=O)c1nn2cc(-c3ccc4c(c3)OCCCO4)nc2s1"
  IC50 / µM: 7
- molecule: "Cc1c(-c2cn3nc(S(N)(=O)=O)sc3n2)cnn1-c1ccccc1"
  IC50 / µM: 7

Here are 8 molecules. What values of IC50 were reported for them?
1. Cc1onc(-c2ccccc2)c1-c1cn2nc(S(N)(=O)=O)sc2n1
2. NS(=O)(=O)c1nn2cc(-c3cccs3)nc2s1
3. Cc1c(-c2cn3nc(S(N)(=O)=O)sc3n2)sc2ccccc12
4. COc1ccccc1-c1ccc(-c2cn3nc(S(N)(=O)=O)sc3n2)cc1
5. NS(=O)(=O)c1nn2cc(-c3ccc([N+](=O)[O-])s3)nc2s1 [Compound 114, hydrobromide]
6. NS(=O)(=O)c1nn2cc(-c3ccc(Cl)c(Cl)c3Cl)nc2s1
7. CNS(=O)(=O)c1nn2cc(-c3c(F)c(F)c(F)c(F)c3F)nc2s1
8. NS(=O)(=O)c1nn2cc(-c3ccc(Cl)c(Cl)c3)nc2s1

Reply text:
17
5
7
5
7
5
2
3

Batch request: IC50 per item, same order as input.
1. NS(=O)(=O)c1nn2cc(-c3ccc(-c4ccc(CO)cc4)cc3)nc2s1
2. Cc1ccc(C23CC4CC(CC(C4)C2)C3)cc1-c1cn2nc(S(N)(=O)=O)sc2n1
3. NS(=O)(=O)c1nn2cc(-c3cccc(OC(F)(F)F)c3)nc2s1
4. Cc1ccc(-c2nc3sc(S(N)(=O)=O)nn3c2C)cc1Cl
5. COc1ccc(-c2cn3nc(S(N)(=O)=O)sc3n2)c(OC)c1

Reply text:
1: 7; 2: 5; 3: 7; 4: 7; 5: 15

For every record below, what is its IC50?
1. COc1ccccc1-c1cn2nc(S(N)(=O)=O)sc2n1
2. NS(=O)(=O)c1nn2cc(-c3csc4ccccc34)nc2s1
3. NS(=O)(=O)c1nn2c(Br)c(C(F)(F)F)nc2s1
4. NS(=O)(=O)c1nn2cc(-c3ccc(Oc4ccccc4)cc3)nc2s1
5. NS(=O)(=O)c1nn2cc(-c3cc4ccccc4o3)nc2s1
6. NS(=O)(=O)c1nn2cc(-c3ccc(-c4cccc(C(F)(F)F)c4)cc3)nc2s1

Reply text:
1. 10
2. 7
3. 1
4. 5
5. 2
6. 3

Dear colleague, could you send me IC50 for each of the items below? Thanks.
1. NS(=O)(=O)c1nn2cc(-c3ccc(OC(F)(F)F)cc3)nc2s1
2. NS(=O)(=O)c1nn2c(Cl)c(-c3ccc(-c4ccccc4)cc3)nc2s1 [Compound 131, hydrobromide]
3. CC(C)(C)c1cc(-c2cn3nc(S(N)(=O)=O)sc3n2)c2c(c1)C(C)(C)CC2

Reply text:
5
3
7

====

System: SCG neurons
measurement_notes: cells
Type: cell-based, Sprague Dawley rats
condition_info: Rattus norvegicus, Neuron; Taxol™ (50 ng/mL), viability 48 hours later, MTS; read-out: IC(50), protection of SCG neurons from Taxol killing
Counter-ions that a name gives are not always drawn.
readout_type: pIC50
One number for each entry, as −log10 of the molar value.

- compound: "COc1cccc(-c2ccc(-c3cn4nc(S(N)(=O)=O)sc4n3)cc2)c1 [Compound 76]"
  system_name: "SCG neurons"
  pIC50: 5.70

Provide pIC50 for all items below, preserving their order.
1. CCSc1c(F)c(F)c(-c2cn3nc(S(N)(=O)=O)sc3n2)c(F)c1F [Compound 7]
2. Cc1nc(C)c(-c2cn3nc(S(N)(=O)=O)sc3n2)s1 [Compound 122]
3. NS(=O)(=O)c1nn2cc(-c3ccc(N4CCCCC4)cc3)nc2s1 [Compound 67]
4. CN(C)S(=O)(=O)c1nn2cc(-c3cccc(OC(=O)c4ccccc4)c3)nc2s1 [Compound 146]
5. CN(C)S(=O)(=O)c1nn2cc(-c3ccc(Br)cc3)nc2s1 [Compound 143]
6. NS(=O)(=O)c1nn2cc(C34CC5CC(CC(C5)C3)C4)nc2s1 [Compound 60]

Reply text:
1: 5.40; 2: 5.10; 3: 5.00; 4: 4.70; 5: 5.00; 6: 4.60

Below are some compounds; for each one, tell me its pIC50.
1. NS(=O)(=O)c1nn2cc(-c3ccc(OCCCOCc4ccccc4)cc3)nc2s1 [Compound 32]
2. CC(C)(C)c1cc(-c2cn3nc(S(N)(=O)=O)sc3n2)cc(C(C)(C)C)c1O [Compound 55]
3. CN(C)S(=O)(=O)c1nn2c(Br)c(-c3ccc(Br)cc3)nc2s1 [Compound 144, hydrobromide]

Reply text:
[5.00, 4.82, 4.82]

Would you mind giving pIC50 for every compound in the list below?
1. NS(=O)(=O)c1nn2cc(-c3ccc(Cl)c([N+](=O)[O-])c3)nc2s1 [Compound 38]
2. Nc1nnc(Sc2c(-c3ccc4ccccc4c3)nc3sc(S(N)(=O)=O)nn23)s1 [Compound 136]
3. NS(=O)(=O)c1nn2cc(-c3c(F)c(F)c(F)c(F)c3F)nc2s1 [Compound 6]

Reply text:
1. 5.52
2. 5.30
3. 5.52

Answer for every listed entry: what is its pIC50? The entries follow.
1. NS(=O)(=O)c1nn2cc(-c3ccc(OCCO)cc3)nc2s1 [Compound 26]
2. NS(=O)(=O)c1nn2cc(-c3ccc(F)c(F)c3)nc2s1 [Compound 5]

Reply text:
[5.15, 5.30]
